Origin of measurements: patent US20170081400A1

Target: T1, human TL1A extracellular domain with N-terminal HIS and FLAG tag (human, UniProt O95150 72-251)
T1 construct: whole entry named. ~70 kDa fraction purified by gel filtration
T1 sequence: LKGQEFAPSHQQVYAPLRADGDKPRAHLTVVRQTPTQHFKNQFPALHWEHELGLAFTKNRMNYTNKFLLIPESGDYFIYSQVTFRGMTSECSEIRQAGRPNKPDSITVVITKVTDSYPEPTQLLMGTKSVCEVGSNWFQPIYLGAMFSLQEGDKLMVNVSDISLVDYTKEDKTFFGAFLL
Assay: SPR run 3; supernatant on Protein A; TL1A 10 ug/mL; timepoint 590
Entries annotated with measured TL1A Binding Level (Late)
parameter: TL1A Binding Level (Late) (RU)

binder | outputUnit | readoutValue
320-263 (antibody, human IgG1, name in Kabat numbering, V domains shown, human IgG1, lambda) VH: QVQLVQSGAEVKKPGASVKVSCKASGYTFTSYDINWVRQAPGQGLEWMGWLNPNSGNTGYAQKFQGRVTMTADRSTSTAYMELSSLRSEDTAVYYCAREVPETAAFEYWGQGTLVTVSS VL: QSVLTQPPSVSGAPGQRVTISCTSSSSDIGKGLGVHWYQQLPGTAPKLLIEGYYNRPSGVPDRFSGSKSGTSASLTITGLLPEDEGDYYCQSYDGTLSALFGGGTKLTVLG | RU | 123
320-277 (antibody, human IgG1, V domains shown, human IgG1, lambda) VH: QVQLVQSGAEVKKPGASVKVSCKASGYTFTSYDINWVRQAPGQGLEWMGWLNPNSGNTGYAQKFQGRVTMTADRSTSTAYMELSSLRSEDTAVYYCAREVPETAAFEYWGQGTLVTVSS VL: QSVLTQPPSVSGAPGQRVTISCTSSSSDIGAGSGVHWYQQLPGTAPKLLIEGYYNRPSGVPDRFSGSKSGTSASLTITGLLPEDEGDYYCQSYDGTLSALFGGGTKLTVLG | RU | 361
320-304 (antibody, human IgG1, name in Kabat numbering, V domains shown, human IgG1, lambda) VH: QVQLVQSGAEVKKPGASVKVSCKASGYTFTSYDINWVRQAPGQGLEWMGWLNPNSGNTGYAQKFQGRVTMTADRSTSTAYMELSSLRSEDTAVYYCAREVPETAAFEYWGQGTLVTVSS VL: QSVLTQPPSVSGAPGQRVTISCTSSSSDIGAGLGVQWYQQLPGTAPKLLIEGYYNRPSGVPDRFSGSKSGTSASLTITGLLPEDEGDYYCQSYDGTLSALFGGGTKLTVLG | RU | 82
320-296 (antibody, human IgG1, name in Kabat numbering, V domains shown, human IgG1, lambda) VH: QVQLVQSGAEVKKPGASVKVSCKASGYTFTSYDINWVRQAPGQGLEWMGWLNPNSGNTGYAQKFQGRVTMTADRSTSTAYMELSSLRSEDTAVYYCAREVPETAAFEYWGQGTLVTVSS VL: QSVLTQPPSVSGAPGQRVTISCTSSSSDIGAGLGDHWYQQLPGTAPKLLIEGYYNRPSGVPDRFSGSKSGTSASLTITGLLPEDEGDYYCQSYDGTLSALFGGGTKLTVLG | RU | 104
